These entries and their values trace back to patent US10654917B2.

System: bEnd3 cells
Assay: Uptake test: cellular interaction (acid wash) and internalization (lysate)
Format: cell-based
Conditions: 99mTc; 0.25 hours
In this section, each of the substances is paired with its reported Internalization.
Form entry: value (%) — number only.

A selection of reference data follows.
| SUBSTANCE | Internalization (%) |
| --- | --- |
| KLFMALVAFLRFLT [PepH2] | 2.15 |
| KSKAINVLRGFRKEIGRMLNILN [PepH4] | 0.17 |
| AGILKRW (Dengue virus 2; /note=“#PepH3 (PEP+)”) | 0.15 |

Lab note: next substance to report on.
Summary for this substance, VQQLTKRFSL (Dengue virus 2; /note=“#PepH1”) : Internalization is 0.16
